# maps each entry to its pIC50
Tested on: HDLM-2;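 also: cell viability assay measuring suppression of HDLM-2 proliferation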
Experiment: cells
Type: functional, cell-based
Conditions: Homo sapiens
Description: SANGER: Inhibition of human HDLM-2 cell growth in a cell viability assay.
pIC50: −log10 of the molar value.

# compound, pIC50
data = [
    ("COc1cc(F)c(F)c(Nc2ccc(I)cc2F)c1NS(=O)(=O)C1(CC(O)CO)CC1 (stereo unspecified)", "< 5.30"),
    ("COc1ccc(-c2ccc3c(N4CCOC[C@@H]4C)nc(N4CCOC[C@@H]4C)nc3n2)cc1CO", 5.92),
    ("Cn1cc(C2=C(c3ccc(Cl)cc3Cl)C(=O)NC2=O)c2ccccc21", 6.68),
]

# get_value(readout='pIC50', item= `CS(=O)(=O)CCNCc1ccc(-c2ccc3ncnc(Nc4ccc(OCc5cccc(F)c5)c(Cl)c4)c3c2)o1` )
< 5.70

# get_value(readout='pIC50', item= `CCOc1nc(NC(=O)Cc2cc(OC)ccc2OC)cc(N)c1C#N` )
< 5.00

# get_value(readout='pIC50', item= `C=CCNC1=C2C[C@@H](C)C[C@H](OC)[C@H](O)[C@@H](C)/C=C(\C)[C@H](OC(N)=O)[C@@H](OC)/C=C\C=C(/C)C(=O)NC(=CC1=O)C2=O` )
< 6.00
